biological target: human chemokine (C-C motif) receptor 8 (CCR8) (human, UniProt P51685 1-355); experiment: cell-based or functional assay; note: test concentration or dose not given here
Sequence (P51685 whole entry): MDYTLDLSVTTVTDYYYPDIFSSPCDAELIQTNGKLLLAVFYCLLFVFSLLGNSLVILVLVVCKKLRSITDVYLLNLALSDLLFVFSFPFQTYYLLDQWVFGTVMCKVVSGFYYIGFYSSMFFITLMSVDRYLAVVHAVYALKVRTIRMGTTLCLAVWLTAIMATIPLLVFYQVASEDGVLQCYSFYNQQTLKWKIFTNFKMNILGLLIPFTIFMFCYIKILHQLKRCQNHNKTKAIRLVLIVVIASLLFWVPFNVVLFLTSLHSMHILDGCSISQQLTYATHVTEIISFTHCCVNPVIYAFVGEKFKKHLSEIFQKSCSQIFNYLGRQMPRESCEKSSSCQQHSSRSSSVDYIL
quantity-measured: % hCCR8-Ba/F3 - THP-1 complexes (%)
Expressed in %, but write only the number.

binder	readout-number
AB1 (antibody, V domains shown, Hybridoma monoclonal (mice or rats immunised); Used purified and PE-conjugated; also called antibody 1; clone 1) VH: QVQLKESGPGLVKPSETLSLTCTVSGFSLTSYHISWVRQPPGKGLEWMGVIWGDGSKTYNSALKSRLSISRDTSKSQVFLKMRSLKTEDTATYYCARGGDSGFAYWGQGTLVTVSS VL: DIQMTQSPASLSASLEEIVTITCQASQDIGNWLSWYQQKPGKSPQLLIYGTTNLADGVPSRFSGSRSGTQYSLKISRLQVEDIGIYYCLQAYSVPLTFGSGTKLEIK	0.6

# evaluate next
% hCCR8-Ba/F3 - THP-1 complexes for AB3 (antibody, V domains shown, Hybridoma monoclonal; also called antibody 3; clone 3) VH: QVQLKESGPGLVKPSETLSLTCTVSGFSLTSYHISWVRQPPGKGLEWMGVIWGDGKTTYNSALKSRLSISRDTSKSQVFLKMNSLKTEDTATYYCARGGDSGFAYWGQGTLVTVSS VL: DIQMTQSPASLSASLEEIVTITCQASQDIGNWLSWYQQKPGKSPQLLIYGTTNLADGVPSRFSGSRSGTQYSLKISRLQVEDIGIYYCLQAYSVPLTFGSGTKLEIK ?
0.74

Measured values drawn from patent US20240360228A1 for this set.
